TEST_SYSTEM: mu opioid receptor (Homo sapiens, UniProt P35372)
Construct: Cerep
Sequence (P35372 whole entry): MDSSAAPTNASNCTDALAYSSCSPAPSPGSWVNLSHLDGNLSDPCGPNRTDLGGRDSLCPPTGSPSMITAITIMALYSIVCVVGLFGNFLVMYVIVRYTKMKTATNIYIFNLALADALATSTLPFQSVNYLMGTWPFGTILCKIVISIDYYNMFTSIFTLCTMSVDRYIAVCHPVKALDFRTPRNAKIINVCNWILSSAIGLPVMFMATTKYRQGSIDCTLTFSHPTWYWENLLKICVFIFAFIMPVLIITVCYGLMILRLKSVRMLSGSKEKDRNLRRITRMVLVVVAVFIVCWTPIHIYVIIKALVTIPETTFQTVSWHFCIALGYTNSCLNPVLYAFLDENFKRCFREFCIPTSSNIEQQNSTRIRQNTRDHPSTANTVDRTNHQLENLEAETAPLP
EXPERIMENT: mu opioid receptor cellular assay (MOP), agonist mode, cAMP readout (Cerep)
Assay type: cell-based
Non-standard residues stand in square brackets, D forms with d. Residues, ends and D or L forms follow the SMILES beside them. *: point of attachment. GlcA(β1-O-octyl) = CCCCCCCCO[C@@H]1O[C@H](C(=O)*)[C@@H](O)[C@H](O)[C@H]1O; βGlcA(1-OMe) = CO[C@@H]1O[C@H](C(=O)*)[C@@H](O)[C@H](O)[C@H]1O; Dmt = Cc1cc(O)cc(C)c1C[C@H](N)C(=O)O; Tic = O=C(O)[C@@H]1Cc2ccccc2CN1; Aib = CC(C)(N)C(=O)O
METRIC_NAME: Characterization (MOP)

MOLECULE: CO[C@@H]1O[C@H](C(=O)NCCCC[C@H](NC(=O)[C@H](Cc2ccccc2)NC(=O)[C@@H]2Cc3ccccc3CN2C(=O)[C@@H](N)Cc2c(C)cc(O)cc2C)C(=O)NC(C)(C)C(N)=O)[C@@H](O)[C@H](O)[C@H]1O [EU-A600, Dmt-Tic-Phe-Lys(C1-glucuronyl)-Aib-NH2] (H-[Dmt][Tic]FK(βGlcA(1-OMe))[Aib]-NH2; N-terminus assumed)
RESULT: Pure MOP Ag;
//
MOLECULE: CCCCCCCCO[C@@H]1O[C@H](C(=O)NCCCC[C@H](NC(=O)[C@H](Cc2ccccc2)NC(=O)[C@@H]2Cc3ccccc3CN2C(=O)[C@@H](N)Cc2c(C)cc(O)cc2C)C(N)=O)[C@@H](O)[C@H](O)[C@H]1O [EU-A180, Dmt-Tic-Phe-Lys(C8-glucuronyl)-NH2] (H-[Dmt][Tic]FK(GlcA(β1-O-octyl))-NH2)
RESULT: Pure MOP Ag;

* * *

TEST_SYSTEM: mu opioid receptor (Homo sapiens, UniProt P35372)
Construct: Cerep
EXPERIMENT: mu opioid receptor cellular assay (MOP), agonist mode, cAMP readout (Cerep)
Non-standard residues stand in square brackets, D forms with d. Residues, ends and D or L forms follow the SMILES beside them. *: point of attachment. GlcA(β1-O-octyl) = CCCCCCCCO[C@@H]1O[C@H](C(=O)*)[C@@H](O)[C@H](O)[C@H]1O; Phe(2,4,6-Me3) = Cc1cc(C)c(C[C@H](N)C(=O)O)c(C)c1; Dmt = Cc1cc(O)cc(C)c1C[C@H](N)C(=O)O
METRIC_NAME: EC50 (nM)
Give just the numeric value; nM need not be written.

MOLECULE: CO[C@@H]1O[C@H](C(=O)NCCCC[C@H](NC(=O)[C@H](Cc2ccccc2)NC(=O)[C@H](Cc2ccccc2)NC(=O)[C@@H]2Cc3ccccc3CN2C(=O)[C@@H](N)Cc2c(C)cc(O)cc2C)C(N)=O)[C@@H](O)[C@H](O)[C@H]1O [EU-A189]
EC50 (nM): 41

INPUT: What measured EC50 is associated with CCCCCCCCO[C@@H]1O[C@H](C(=O)NCCCC[C@H](NC(=O)[C@H](Cc2c(C)cc(C)cc2C)NC(=O)[C@@H]2CCCN2C(=O)[C@@H](N)Cc2c(C)cc(O)cc2C)C(N)=O)[C@@H](O)[C@H](O)[C@H]1O [EU-A102] (H-[Dmt]P[Phe(2,4,6-Me3)]K(GlcA(β1-O-octyl))-NH2) on mu opioid receptor (Homo sapiens, UniProt P35372)?
OUTPUT: 100
